src = patent EP0745595A1

- Tested on: ORYZA SATIVA, L. TEBONNET
- test_details: Rice tolerance to post-transplant applications under flooded paddy conditions, ORYSAT (Rice, Tebonnet)
- Format: in vivo
- setup_conditions: 0.125 kg/ha, post-transplant rice, 3-4 weeks after treatment
experimental_endpoint: Herbicidal effect rating, ORYSAT

Ask: Request body: readout Herbicidal effect rating, ORYSAT, system ORYZA SATIVA, L. TEBONNET, query Cn1c(=O)n(CC(=O)OC(C)(C)C)c(=O)n(-c2cc(Oc3c(F)cc(C(F)(F)F)cc3Cl)ccc2[N+](=O)[O-])c1=O [Compound 17] . Return the value.
Reply: 3.0

Ask: Request body: readout Herbicidal effect rating, ORYSAT, system ORYZA SATIVA, L. TEBONNET, query COC(=O)Cn1c(=O)n(C)c(=O)n(-c2cc(Oc3ccc(Cl)cc3Cl)ccc2Br)c1=O [Compound 43] . Return the value.
Reply: 3.0

Ask: Request body: readout Herbicidal effect rating, ORYSAT, system ORYZA SATIVA, L. TEBONNET, query COC(=O)Cn1c(=O)n(CC(=O)OC)c(=O)n(-c2cc(Oc3ccc(Cl)cc3Cl)ccc2[N+](=O)[O-])c1=O [Compound 19] . Return the value.
Reply: 1.0

Ask: Request body: readout Herbicidal effect rating, ORYSAT, system ORYZA SATIVA, L. TEBONNET, query COC(=O)Cn1c(=O)n(C)c(=O)n(-c2cc(Oc3ccc(F)cc3C(F)(F)F)ccc2[N+](=O)[O-])c1=O [Compound 21] . Return the value.
Reply: 0.0

Ask: Request body: readout Herbicidal effect rating, ORYSAT, system ORYZA SATIVA, L. TEBONNET, query COC(=O)Cn1c(=O)n(C)c(=O)n(-c2cc(Oc3ccc(Cl)cc3Cl)ccc2[N+](=O)[O-])c1=O [Compound 18] . Return the value.
Reply: 3.0

Ask: Request body: readout Herbicidal effect rating, ORYSAT, system ORYZA SATIVA, L. TEBONNET, query COC(=O)Cn1c(=O)n(C)c(=O)n(-c2cc(Oc3ncc(C(F)(F)F)cc3Cl)ccc2Br)c1=O [Compound 45] . Return the value.
Reply: 2.0

Ask: Request body: readout Herbicidal effect rating, ORYSAT, system ORYZA SATIVA, L. TEBONNET, query COC(=O)Cn1c(=O)n(C)c(=O)n(-c2cc(Oc3cccc(Cl)c3Cl)ccc2[N+](=O)[O-])c1=O [Compound 22] . Return the value.
Reply: 0.0

----------
- System: SETARIA VIRIDIS, (L) BEAU
- test_details: Postemergence herbicidal evaluation, SETVI (Foxtail, Green)
- Assay type: in vivo
- Set-up: key: 0-9 visual rating scale vs untreated control
- setup_conditions: 0.125 kg/ha
experimental_endpoint: Herbicidal effect rating, SETVI
Give your answer as a number; write no unit.

Ask: Request body: readout Herbicidal effect rating, SETVI, system SETARIA VIRIDIS, (L) BEAU, query COC(=O)Cn1c(=O)n(C)c(=O)n(-c2cc(Oc3ccc(C(F)(F)F)cc3Cl)ccc2[N+](=O)[O-])c1=O . Return the value.
Reply: 6.8

Ask: Request body: readout Herbicidal effect rating, SETVI, system SETARIA VIRIDIS, (L) BEAU, query Cn1c(=O)[nH]c(=O)n(-c2cc(Oc3c(F)cc(C(F)(F)F)cc3Cl)ccc2F)c1=O [C, reference compound] . Return the value.
Reply: 0.0

Ask: Request body: readout Herbicidal effect rating, SETVI, system SETARIA VIRIDIS, (L) BEAU, query COC(=O)Cn1c(=O)n(C)c(=O)n(-c2cc(Oc3c(F)cc(C(F)(F)F)cc3Cl)ccc2F)c1=O . Return the value.
Reply: 9.0

Ask: Request body: readout Herbicidal effect rating, SETVI, system SETARIA VIRIDIS, (L) BEAU, query COC(=O)Cn1c(=O)n(C)c(=O)n(-c2cc(Oc3c(F)cc(C(F)(F)F)cc3Cl)ccc2Br)c1=O . Return the value.
Reply: 9.0

Ask: Request body: readout Herbicidal effect rating, SETVI, system SETARIA VIRIDIS, (L) BEAU, query Cn1c(=O)[nH]c(=O)n(-c2cc(Oc3c(F)cc(C(F)(F)F)cc3Cl)ccc2Br)c1=O [A, reference compound] . Return the value.
Reply: 2.0

Ask: Request body: readout Herbicidal effect rating, SETVI, system SETARIA VIRIDIS, (L) BEAU, query Cn1c(=O)[nH]c(=O)n(-c2cc(Oc3ccc(C(F)(F)F)cc3Cl)ccc2[N+](=O)[O-])c1=O [B, reference compound] . Return the value.
Reply: 0.0

----------
Please respond with reported ECHORC for every item in the list.
- Test system: ECHINOCHLOA ORYZOIDES (ARD.)FRITSCH
- test_details: Preemergence weed control under flooded paddy conditions, ECHORC (Watergrass (Calif.))
- Assay type: in vivo
- setup_conditions: pre-weed, Rate 0.250 kg/ha
Give your answer as a number; write no unit.

Ask: Given Cn1c(=O)[nH]c(=O)n(-c2cc(Oc3ccc(C(F)(F)F)cc3Cl)ccc2Cl)c1=O [F, reference compound] , state its recorded ECHORC.
Reply: 0.0

Ask: Given Cn1c(=O)[nH]c(=O)n(-c2cc(Oc3c(F)cc(C(F)(F)F)cc3Cl)ccc2[N+](=O)[O-])c1=O [D, reference compound] , state its recorded ECHORC.
Reply: 9.0

Ask: Given COC(=O)Cn1c(=O)n(C)c(=O)n(-c2cc(Oc3c(F)cc(C(F)(F)F)cc3Cl)ccc2[N+](=O)[O-])c1=O [Compound 16] , state its recorded ECHORC.
Reply: 9.0

Ask: Given Cn1c(=O)[nH]c(=O)n(-c2cccc(Oc3ccc(C(F)(F)F)cc3Cl)c2)c1=O [E, reference compound] , state its recorded ECHORC.
Reply: 0.0

----------
- Test system: ORYZA SATIVA, L. TEBONNET
- test_details: Rice tolerance to post-transplant applications under flooded paddy conditions, ORYSAT (Rice, Tebonnet)
- Format: in vivo
- setup_conditions: post-transplanted rice, Rate 0.250 kg/ha
experimental_endpoint: ORYSAT
Give your answer as a number; write no unit.

Ask: Given Cn1c(=O)[nH]c(=O)n(-c2cccc(Oc3ccc(C(F)(F)F)cc3Cl)c2)c1=O [E, reference compound] , state its recorded ORYSAT.
Reply: 0.0

Ask: Given Cn1c(=O)[nH]c(=O)n(-c2cc(Oc3c(F)cc(C(F)(F)F)cc3Cl)ccc2F)c1=O [C, reference compound] , state its recorded ORYSAT.
Reply: 5.0

Ask: Given COC(=O)Cn1c(=O)n(C)c(=O)n(-c2cc(Oc3c(F)cc(C(F)(F)F)cc3Cl)ccc2[N+](=O)[O-])c1=O [Compound 16] , state its recorded ORYSAT.
Reply: 7.0

Ask: Given Cn1c(=O)[nH]c(=O)n(-c2cc(Oc3c(F)cc(C(F)(F)F)cc3Cl)ccc2[N+](=O)[O-])c1=O [D, reference compound] , state its recorded ORYSAT.
Reply: 6.0

----------
Please respond with reported Herbicidal effect rating, ORYSAT for every item in the list.
- System: ORYZA SATIVA, L. TEBONNET
- test_details: Rice tolerance to post-transplant applications under flooded paddy conditions, ORYSAT (Rice, Tebonnet)
- Format: in vivo
- setup_conditions: 0.500 kg/ha, post-transplant rice, 3-4 weeks after treatment
- Protocol: Results of herbicide evaluation are expressed on a rating scale (0-9). The scale is based upon a visual observation of plant stand, vigor, malformation, size, chlorosis and overall plant appearance as compared with a control. The tolerance of transplanted rice to post-transplanted herbicide applications is determined as follows: two ten-day-old rice seedlings (CV. Tebonnet) are transplanted into a silt loam soil in 32 oz. plastic containers with a diameter of 10.5 cm and no drainage holes. […]

Ask: Given COC(=O)Cn1c(=O)n(C)c(=O)n(-c2cc(Oc3ccc(Cl)cc3Cl)ccc2[N+](=O)[O-])c1=O , state its recorded Herbicidal effect rating, ORYSAT.
Reply: 4.0

Ask: Given Cn1c(=O)n(CC(=O)OC(C)(C)C)c(=O)n(-c2cc(Oc3c(F)cc(C(F)(F)F)cc3Cl)ccc2F)c1=O , state its recorded Herbicidal effect rating, ORYSAT.
Reply: 0.0

Ask: Given COC(=O)Cn1c(=O)n(C)c(=O)n(-c2cc(Oc3ccc([S+](C)[O-])cc3Cl)ccc2[N+](=O)[O-])c1=O (stereo not shown) , state its recorded Herbicidal effect rating, ORYSAT.
Reply: 0.0

Ask: Given COC(=O)Cn1c(=O)[nH]c(=O)n(-c2cc(Oc3ccc(Cl)cc3Cl)ccc2[N+](=O)[O-])c1=O , state its recorded Herbicidal effect rating, ORYSAT.
Reply: 0.0

Ask: Given CC(C)OC(=O)Cn1c(=O)n(C)c(=O)n(-c2cc(Oc3ncc(C(F)(F)F)cc3Cl)ccc2Br)c1=O , state its recorded Herbicidal effect rating, ORYSAT.
Reply: 3.0

Ask: Given COC(=O)Cn1c(=O)n(C)c(=O)n(-c2cc(Oc3cc(Cl)cc(Cl)c3)ccc2[N+](=O)[O-])c1=O , state its recorded Herbicidal effect rating, ORYSAT.
Reply: 0.0

Ask: Given Cn1c(=O)n(CC(=O)OC(C)(C)C)c(=O)n(-c2cc(Oc3ccc(C(F)(F)F)cc3Cl)ccc2Cl)c1=O , state its recorded Herbicidal effect rating, ORYSAT.
Reply: 1.5
